- System: NCI-H522 lung
- protocol.notes: NCI-60 one-dose screen, 48 h (100 = growth as untreated, 0 = no growth, -100 = all killed)
- test.conditions: 10 µM unless noted
- Method: Growth inhibition of the NCI-H522 human Non-Small Cell Lung tumor cell line is measured as a screen for anti-cancer activity. Cells are grown in 96 well plates and exposed to the test compound for 48 hours. Compounds are tested at a single concentration, which is 10^-5 M for most compounds. The reported endpoint is percent growth (GI% or GIPRCNT), where numbers from 0 - 100% represent growth inhibition, and numbers from -100% - 0 represent cell death. […]
About 83,000 compounds went through this panel and 20% of them were active in at least one assay; those are over-represented in the sample as a whole.
measured.quantity: growth (%)
Report the figure in % without appending any unit label.

Consider the worked cases shown below.
COc1ccc(/C=C\c2cc(OC)c(OC)c(OC)c2)cc1N/C=C\C(=O)c1c[nH]c2ccccc12; -9.96
C[CH2][Sn]([CH2]C)([CH2]C)[NH]S(=O)(=O)c1ccc(C)cc1; 110
C[C@@H]1CC[C@@H]2[C@@H]1[C@H](OC(=O)/C=C/C1CCCCC1)[C@]1(C3CCCCC3)C[C@@H](OC(=O)CO)[C@@]2(C)O1; 46.9
CC(N)Cc1ccc(O)cc1 (stereo unspecified); 105

Give growth for O=C(CCCN1CCC2(CC1)C(=O)NCN2c1ccc(F)cc1)c1ccc(F)cc1
87.5

Give growth for CSc1ccccc1NP1(=O)OCC(C)([N+](=O)[O-])CO1 (stereo unspecified)
103
